Molecular target: CK2A1 (CK2α/β) (Homo sapiens)
Test: CK2 kinase assay, CK2A1 (CK2α/β)
Assay type: biochemical
Conditions: Table A; read-out: CK2A1 (CK2α/β) (IC50)
pIC50: −log10 of the molar value. Structures can show the parent of a compound that is named as a salt.
measured.parameter: pIC50

Solved entries (count: 8):
- compound: "N#Cc1cc(Nc2nc(NC3CC3)c3ncc(C#N)n3n2)c(Cl)c(-c2cnn(CCN3CCOCC3)c2)c1"
  pIC50: 9.17
- compound: "CC1(N2CCOCC2)CCN(c2cc(C#N)cc(Nc3nc(NC4CC4)c4ncc(C#N)n4n3)c2Cl)CC1 [Example 304, HCl]"
  pIC50: 9.10
- compound: "COC(=O)Nc1cc(Nc2nc(NC3CC3)c3ncc(C#N)n3n2)c(Cl)c(N2CCN(C)CC2)c1"
  pIC50: 8.60
- compound: "N#Cc1cc(Nc2nc(NC3CC3)c3ncc(C#N)n3n2)c(Cl)c(N2CCC3C(CCN3[C@H]3COC[C@@H]3O)C2)c1 (mixture of isomers)"
  pIC50: 8.26
- compound: "CCNc1nc(Nc2cc(C#N)cc(N3CCC4(CCN(C)C4=O)CC3)c2Cl)nn2c(C#N)cnc12 (racemic)"
  pIC50: 8.73
- compound: "C=C(C)/C=C/CN1CCN(c2cc(C#N)cc(Nc3nc(NC4CC4)c4ncc(C#N)n4n3)c2Cl)CC1"
  pIC50: 8.20
- compound: "CC(=O)N1CC(N2CCN(c3cc(OC(F)F)cc(Nc4nc(NC5CC5)c5ncc(C#N)n5n4)c3Cl)CC2)C1"
  pIC50: 8.63
- compound: "N#Cc1cc(Nc2nc(NC3CC3)c3ncc(C#N)n3n2)c(Cl)c(N2CCC(N[C@@H]3CC[C@H](O)C3)CC2)c1 (racemic)"
  pIC50: 8.98

(a) CCNc1nc(Nc2cc(C(N)=O)cc(N3CC[C@H](NC(=O)OC)[C@@H](O)C3)c2Cl)nn2c(C#N)cnc12 (racemic)
(b) N#Cc1cc(CN2CCOCC2)c(Cl)c(Nc2nc(NC3CC3)c3ncc(C#N)n3n2)c1
(c) N#Cc1cc(Nc2nc(NC3CC3)c3ncc(C#N)n3n2)c(Cl)c(N2CCN(C(=O)C3CNC(=O)N3)CC2)c1 (racemic)
Problem: Parameters: sort_field (pIC50), sort_dir (desc). Answer by listing the labels in the requested order.
Result: b, c, a

(I) N#Cc1cc(Nc2nc(NC3CC3)c3ncc(C#N)n3n2)c(Cl)c(N2CCN(CC3(O)COC3)CC2)c1
(II) CCNC(=O)N[C@H]1CN(c2cc(C#N)cc(Nc3nc(NC4CC4)c4ncc(C#N)n4n3)c2Cl)C[C@H]1OC (racemic)
Problem: So which one has the bigger pIC50 here, I or II ? Pick one and reply with its label.
Result: II
(II: 9.10, I: 8.49)

---

Target: CK2A1 (CK2α/β) (Homo sapiens, UniProt P68400)
Sequence (P68400 whole entry, species assumed): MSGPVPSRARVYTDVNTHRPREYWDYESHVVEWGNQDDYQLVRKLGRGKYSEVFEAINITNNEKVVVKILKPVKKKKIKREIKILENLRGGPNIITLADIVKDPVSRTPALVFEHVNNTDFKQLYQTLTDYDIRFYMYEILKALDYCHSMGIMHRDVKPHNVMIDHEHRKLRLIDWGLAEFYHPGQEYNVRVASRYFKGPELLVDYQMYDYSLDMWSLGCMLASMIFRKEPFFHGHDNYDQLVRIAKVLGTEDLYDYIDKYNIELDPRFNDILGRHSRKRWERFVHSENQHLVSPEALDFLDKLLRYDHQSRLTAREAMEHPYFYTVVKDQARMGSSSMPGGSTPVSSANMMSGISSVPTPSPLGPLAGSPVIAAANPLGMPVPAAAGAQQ
Sequence (P67870 whole entry partner, species assumed): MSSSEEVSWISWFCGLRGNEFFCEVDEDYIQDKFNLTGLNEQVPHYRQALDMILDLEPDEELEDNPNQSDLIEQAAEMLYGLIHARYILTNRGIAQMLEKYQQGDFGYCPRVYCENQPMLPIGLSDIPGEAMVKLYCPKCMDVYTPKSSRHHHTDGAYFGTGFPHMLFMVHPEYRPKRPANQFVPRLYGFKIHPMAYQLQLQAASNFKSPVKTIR
Experiment: CK2 kinase assay, CK2A1 (CK2α/β)
Format: biochemical
Conditions: Table A; read-out: CK2A1 (CK2α/β) (IC50)
Structures can show the parent of a compound that is named as a salt.
measured.parameter: IC50 (nM)

Solved cases below.
- compound: "N#Cc1cc(CN2CCC(F)(F)CC2)c(Cl)c(Nc2nc(NC3CC3)c3ncc(C#N)n3n2)c1 [Example 477]"
  IC50 (nM): 2.43
- compound: "CCNc1nc(Nc2cc(C#N)cc(C3CCN(C[C@H](C)O)CC3)c2Cl)nn2c(C#N)cnc12 [Example 214]"
  IC50 (nM): 4.55

(A) CN1CCC(N2CC(O)(c3cc(C#N)cc(Nc4nc(NC5CC5)c5ncc(C#N)n5n4)c3Cl)C2)CC1 [Example 647]
(B) CCNc1nc(Nc2cc(C#N)cc(N3CC[C@@H](NC(=O)OC)[C@H](OC(=O)[C@@H](N)CCCNC(=N)N)C3)c2Cl)nn2c(C#N)cnc12 [Example 808, trihydrochloride]
Problem: Dear colleague, could you let me know whether A or B has the lower recorded IC50? Thanks. Answer by stating the label of the chosen item.
Result: B

(I) N#Cc1cc(Nc2nc(NC3CC3)c3ncc(C#N)n3n2)c(Cl)c(N2CCN(C3(C#N)COC3)CC2)c1 [Example 104]
(II) CCNc1nc(Nc2cc(C#N)cc(N3CC[C@@H](NC(=O)OC)[C@H](OC(=O)[C@@H](N)CCN)C3)c2Cl)nn2c(C#N)cnc12 [Example 812, dihydrochloride]
Problem: Identify the entry with the larger IC50. Options: I and II Pick one and reply with its label.
Result: II
(II: 4.61 nM, I: 0.7 nM)

(I) N#Cc1cc(Nc2nc(NC3CC3)c3ncc(C#N)n3n2)c(F)cc1OCCN1CCOCC1 [Example 416]
(II) CCNc1nc(Nc2cc(C#N)cc(N3CC[C@@H](NC(=O)OC)[C@H](N(C)[C@@H](C)C(N)=O)C3)c2Cl)nn2c(C#N)cnc12 [Example 768]
Problem: Which value of IC50 is smaller, the one for I or the one for II ? Lab log: write the label of the selected item as the result.
Result: I
(I: 0.68 nM, II: 4 nM)
